# experiment-notes: Toxicokinetics test in the satellite groups (UPLC-MS/MS of rat plasma)
# Assay type: in vivo
# particulars: female, SD, rat, plasma, po, female rats, Day 1, highest dose (berberine 72.08, epiberberine 7.42, coptisine 7.42, palmatine 18.26, jatrorrhizine 2.80, columbamine 5.93 mg/kg); read-out: Cmax mean

smiles	unit-descriptor	Cmax
COc1cc2c(cc1O)CC[n+]1cc3c(OC)c(OC)ccc3cc1-2	ng/mL	14.8
COc1cc2c(cc1O)-c1cc3ccc(OC)c(OC)c3c[n+]1CC2	ng/mL	37.7

---

# experiment-notes: Toxicokinetics test in the satellite groups (UPLC-MS/MS of rat plasma)
# Assay type: in vivo
# particulars: female, SD, rat, plasma, po, female rats, Day 28, lowest dose (berberine 8.01, epiberberine 0.82, coptisine 1.38, palmatine 2.03, jatrorrhizine 0.31, columbamine 0.66 mg/kg); read-out: T1/2 mean (converted)
# Description: SD rats (5 ~ 6 weeks, 3/group/sex) were randomly allocated to three treatment groups and given the same dosage as those in the repeated toxicity experiment for 28 days. […] Carbamazepine was chosen as the internal standard (IS). The blood samples were centrifuged to obtain plasma. Then, 300 μL of acetonitrile containing 40 ng of IS was added to 100 μL of plasma. After vortexing for 1 min, the mixture was centrifuged at 17,000 rpm for 15 min at 4 °C. […]
Below, each of the molecules is paired with its reported half-life value.
parameter: half-life

smiles	experimental-value
COc1cc2c(cc1O)CC[n+]1cc3c(OC)c(OC)ccc3cc1-2	3.39 h
COc1cc2c(cc1O)-c1cc3ccc(OC)c(OC)c3c[n+]1CC2	10.9 h

---

# experiment-notes: Toxicokinetics test in the satellite groups (UPLC-MS/MS of rat plasma)
# Format: in vivo
# particulars: female, SD, rat, plasma, po, female rats, Day 1, highest dose (berberine 72.08, epiberberine 7.42, coptisine 7.42, palmatine 18.26, jatrorrhizine 2.80, columbamine 5.93 mg/kg); read-out: T1/2 mean (converted)
# Experimental: SD rats (5 ~ 6 weeks, 3/group/sex) were randomly allocated to three treatment groups and given the same dosage as those in the repeated toxicity experiment for 28 days. […] Carbamazepine was chosen as the internal standard (IS). The blood samples were centrifuged to obtain plasma. Then, 300 μL of acetonitrile containing 40 ng of IS was added to 100 μL of plasma. After vortexing for 1 min, the mixture was centrifuged at 17,000 rpm for 15 min at 4 °C. […]

smiles	unit-descriptor	half-life
COc1cc2c(cc1O)-c1cc3ccc(OC)c(OC)c3c[n+]1CC2	h	8.24
COc1cc2c(cc1O)CC[n+]1cc3c(OC)c(OC)ccc3cc1-2	h	3.96

---

Below, each of the compounds is paired with its reported Cmax value.
# experiment-notes: Toxicokinetics test in the satellite groups (UPLC-MS/MS of rat plasma)
# Type: in vivo
# particulars: female, SD, rat, plasma, po, 0.4 g/kg, female rats, Day 1, low dose TAZF 0.4 g/kg by gavage; read-out: Cmax

smiles	unit-descriptor	Cmax
COc1cc2c(cc1O)-c1cc3ccc(OC)c(OC)c3c[n+]1CC2	ng/mL	30
COc1cc2c(cc1O)CC[n+]1cc3c(OC)c(OC)ccc3cc1-2	ng/mL	11
COc1ccc2cc3[n+](cc2c1OC)CCc1cc2c(cc1-3)OCO2	ng/mL	149

---

# experiment-notes: Toxicokinetics test in the satellite groups (UPLC-MS/MS of rat plasma)
# Type: in vivo
# particulars: female, SD, rat, plasma, po, female rats, Day 1, middle dose (berberine 24.03, epiberberine 2.47, coptisine 2.47, palmatine 6.09, jatrorrhizine 0.93, columbamine 1.98 mg/kg); read-out: T1/2 mean (converted)

compound	half-life / h
COc1cc2c(cc1O)-c1cc3ccc(OC)c(OC)c3c[n+]1CC2 [columbamine]	7.78
COc1cc2c(cc1O)CC[n+]1cc3c(OC)c(OC)ccc3cc1-2 [jatrorrhizine]	3.57

---

# experiment-notes: Toxicokinetics test in the satellite groups (UPLC-MS/MS of rat plasma)
# Type: in vivo
# particulars: male, SD, rat, plasma, po, male rats, Day 28, lowest dose (berberine 8.01, epiberberine 0.82, coptisine 1.38, palmatine 2.03, jatrorrhizine 0.31, columbamine 0.66 mg/kg); read-out: T1/2 mean (converted)
parameter: half-life (h)

smiles	experimental-value
COc1cc2c(cc1O)CC[n+]1cc3c(OC)c(OC)ccc3cc1-2	11.1
COc1cc2c(cc1O)-c1cc3ccc(OC)c(OC)c3c[n+]1CC2	7.52

---

Below, each of the compounds is paired with its reported half-life value.
# experiment-notes: Toxicokinetics test in the satellite groups (UPLC-MS/MS of rat plasma)
# Type: in vivo
# particulars: female, SD, rat, plasma, po, female rats, Day 1, lowest dose (berberine 8.01, epiberberine 0.82, coptisine 1.38, palmatine 2.03, jatrorrhizine 0.31, columbamine 0.66 mg/kg); read-out: T1/2 mean (converted)

compound	half-life, h
COc1cc2c(cc1O)-c1cc3ccc(OC)c(OC)c3c[n+]1CC2 [columbamine]	4.31
COc1cc2c(cc1O)CC[n+]1cc3c(OC)c(OC)ccc3cc1-2 [jatrorrhizine]	2.64

---

# experiment-notes: Toxicokinetics test in the satellite groups (UPLC-MS/MS of rat plasma)
# Assay type: in vivo
# particulars: female, SD, rat, plasma, po, 0.4 g/kg, female rats, Day 28, low dose TAZF 0.4 g/kg by gavage; read-out: Cmax
parameter: Cmax (ng/mL)

smiles	experimental-value
COc1cc2c(cc1O)CC[n+]1cc3c(OC)c(OC)ccc3cc1-2	11.2
COc1ccc2cc3[n+](cc2c1OC)CCc1cc2c(cc1-3)OCO2	324
COc1cc2c(cc1O)-c1cc3ccc(OC)c(OC)c3c[n+]1CC2	30.3

---

# experiment-notes: Toxicokinetics test in the satellite groups (UPLC-MS/MS of rat plasma)
# Format: in vivo
# particulars: male, SD, rat, plasma, po, male rats, Day 1, middle dose (berberine 24.03, epiberberine 2.47, coptisine 2.47, palmatine 6.09, jatrorrhizine 0.93, columbamine 1.98 mg/kg); read-out: T1/2 mean (converted)

smiles	unit-descriptor	half-life
COc1cc2c(cc1O)CC[n+]1cc3c(OC)c(OC)ccc3cc1-2	h	68
COc1cc2c(cc1O)-c1cc3ccc(OC)c(OC)c3c[n+]1CC2	h	59.9

---

# experiment-notes: Toxicokinetics test in the satellite groups (UPLC-MS/MS of rat plasma)
# Type: in vivo
# particulars: male, SD, rat, in vivo, po, 3.7 g/kg, Cmax

smiles	Cmax [ng/mL]
c1c2c(cc3c1OCO3)-c1cc3ccc4c(c3c[n+]1CC2)OCO4	32.3

---

Below, each of the compounds is paired with its reported Cmax value.
# experiment-notes: Toxicokinetics test in the satellite groups (UPLC-MS/MS of rat plasma)
# Format: in vivo
# particulars: female, SD, rat, plasma, po, female rats, Day 28, lowest dose (berberine 8.01, epiberberine 0.82, coptisine 1.38, palmatine 2.03, jatrorrhizine 0.31, columbamine 0.66 mg/kg); read-out: Cmax mean

smiles	Cmax, ng/mL
COc1cc2c(cc1O)-c1cc3ccc(OC)c(OC)c3c[n+]1CC2	30.3
COc1cc2c(cc1O)CC[n+]1cc3c(OC)c(OC)ccc3cc1-2	11.2

---

# experiment-notes: Toxicokinetics test in the satellite groups (UPLC-MS/MS of rat plasma)
# Type: in vivo
# particulars: male, SD, rat, plasma, po, male rats, Day 28, highest dose (berberine 72.08, epiberberine 7.42, coptisine 7.42, palmatine 18.26, jatrorrhizine 2.80, columbamine 5.93 mg/kg); read-out: T1/2 mean (converted)

smiles	half-life (h)
COc1cc2c(cc1O)-c1cc3ccc(OC)c(OC)c3c[n+]1CC2	11.2
COc1cc2c(cc1O)CC[n+]1cc3c(OC)c(OC)ccc3cc1-2	4.48

---

# experiment-notes: Toxicokinetics test in the satellite groups (UPLC-MS/MS of rat plasma)
# Format: in vivo
# particulars: male, SD, rat, plasma, po, male rats, Day 1, lowest dose (berberine 8.01, epiberberine 0.82, coptisine 1.38, palmatine 2.03, jatrorrhizine 0.31, columbamine 0.66 mg/kg); read-out: AUC0-t mean
# Description: SD rats (5 ~ 6 weeks, 3/group/sex) were randomly allocated to three treatment groups and given the same dosage as those in the repeated toxicity experiment for 28 days. […] Carbamazepine was chosen as the internal standard (IS). The blood samples were centrifuged to obtain plasma. Then, 300 μL of acetonitrile containing 40 ng of IS was added to 100 μL of plasma. After vortexing for 1 min, the mixture was centrifuged at 17,000 rpm for 15 min at 4 °C. […]
Below, each of the compounds is paired with its reported AUC(0-t) value.

smiles	AUC(0-t) [ng·h/mL]
COc1cc2c(cc1O)-c1cc3ccc(OC)c(OC)c3c[n+]1CC2	153
COc1cc2c(cc1O)CC[n+]1cc3c(OC)c(OC)ccc3cc1-2	52

---

# experiment-notes: Toxicokinetics test in the satellite groups (UPLC-MS/MS of rat plasma)
# Format: in vivo
# particulars: female, SD, rat, plasma, po, female rats, Day 1, highest dose (berberine 72.08, epiberberine 7.42, coptisine 7.42, palmatine 18.26, jatrorrhizine 2.80, columbamine 5.93 mg/kg); read-out: AUC0-t mean
Below, each of the compounds is paired with its reported AUC(0-t) value.

smiles	AUC(0-t) / ng·h/mL
COc1cc2c(cc1O)CC[n+]1cc3c(OC)c(OC)ccc3cc1-2	22.1
COc1cc2c(cc1O)-c1cc3ccc(OC)c(OC)c3c[n+]1CC2	41.1
